# TARGET_OR_TEST_SYSTEM: Mitogen-activated protein kinase kinase kinase 2 (Homo sapiens) (UniProt Q9Y2U5)
# METHOD_SUMMARY: modulators of MEK5 binding to wildtype MEKK2, primary screen, biochemical, multiplex bead flow cytometry, Alexa488-MEK5 (AID 1531)
# ASSAY_SETUP: Alexa488-MEK5 binding to MEKK2 WT, at 10 µM, actives lie on both sides
The whole screen tested about 290,000 compounds, of which about 3,300 (1.1%) were called active. No stated cut-off is given here; in the data, active means binding response below about 67% or above about 130%; inconclusive means no clear call, values can overlap the other calls; inactive means in between. This is one part of a sample in which actives are shown more often than they occur.
Your reply should match one of these outcome classes. Y (active), N (inactive)

Example entries begin here.
- COMPOUND: "C#CCOCCOCCOCCNc1nc(N2CCN(C(=O)[C@H](CCC(=O)O)n3cc(C(N)CO)nn3)CC2)nc(N2CCN(C(=O)[C@H](Cc3ccc(O)cc3)n3cc(C(N)[C@H](C)CC)nn3)CC2)n1 (stereo not given in full)"
  TARGET_OR_TEST_SYSTEM: "Mitogen-activated protein kinase kinase kinase 2 (Homo sapiens) (UniProt Q9Y2U5)"
  CAT: "N"
- COMPOUND: "C#CCOCCOCCOCCNc1nc(N2CCN(C(=O)C([C@@H](C)CC)n3cc(C(N)COC(=O)C(F)(F)F)nn3)CC2)nc(N2CCN(C(=O)[C@H](Cc3ccc(O)cc3)n3cc(C(N)[C@H](C)CC)nn3)CC2)n1 (stereo not given in full)"
  TARGET_OR_TEST_SYSTEM: "Mitogen-activated protein kinase kinase kinase 2 (Homo sapiens) (UniProt Q9Y2U5)"
  CAT: "N"
- COMPOUND: "C#CCOCCOCCOCCNc1nc(N2CCN(C(=O)C(Cc3ccc(O)cc3)n3cc(C(N)CC(C)C)nn3)CC2)nc(N2CCN(C(=O)C(Cc3ccc(O)cc3)n3cc(C(N)C(C)CC)nn3)CC2)n1 (stereo not given)"
  TARGET_OR_TEST_SYSTEM: "Mitogen-activated protein kinase kinase kinase 2 (Homo sapiens) (UniProt Q9Y2U5)"
  CAT: "Y"

Prompt line: Entry C#CCOCCOCCOCCNc1nc(N2CCN(C(=O)[C@H](CCC(=O)O)n3cc(C(N)CO)nn3)CC2)nc(N2CCN(C(=O)[C@H](CCCCN)n3cc(C(N)CC(C)C)nn3)CC2)n1 (stereo not given in full) : call = ?
Response line: N

Prompt line: Entry C#CCOCCOCCOCCNc1nc(N2CCN(C(=O)C([C@@H](C)CC)n3cc(C(N)COC(=O)C(F)(F)F)nn3)CC2)nc(N2CCN(C(=O)[C@H](CCCCN)n3cc(C(N)CC(C)C)nn3)CC2)n1 (stereo not given in full) : call = ?
Response line: Y

* * *

# TARGET_OR_TEST_SYSTEM: Mitogen-activated protein kinase kinase kinase 2 (Homo sapiens)
# METHOD_SUMMARY: modulators of MEK5 binding to wildtype MEKK2, primary screen, biochemical, multiplex bead flow cytometry, Alexa488-MEK5 (AID 1531)
# ASSAY_SETUP: Alexa488-MEK5 binding to MEKK2 WT, at 10 µM, actives lie on both sides
In all, about 290,000 compounds went through this assay and about 3,300 (1.1%) were called active. Cut-off read from the data, not from the text of the source: active = binding response below about 67% or above about 130%; inconclusive = no clear call, values can overlap the other calls; inactive = in between. The entries come from a sample that favours actives as a whole.
Your reply should match one of these outcome classes. t for active, f for inactive

Prompt line: Entry COC(=O)c1cc(NC(=O)c2ccco2)ccc1N1CCOCC1 : call = ?
Response line: f

Prompt line: Entry CC(=O)Nc1ccc(N2CCOCC2)c(C(=O)Nc2cccc(C)c2)c1 : call = ?
Response line: t

Prompt line: Entry Cc1cccc(OCC(O)CN2CCN(CCN3C(=O)c4cccc5cccc(c45)C3=O)CC2)c1C (stereo unspecified) : call = ?
Response line: t

Prompt line: Entry Cc1ccc(C(C)C)cc1OCC(=O)Nc1ccccc1N1CCCC1 : call = ?
Response line: f

Prompt line: Entry Cc1ccccc1C(OCC(O)CN1CCCCC1CCO)c1ccccc1 (stereo unspecified) : call = ?
Response line: f

Prompt line: Entry OC(COc1ccc(F)cc1Cl)CN1CCc2ccccc2C1 (stereo unspecified) : call = ?
Response line: f

Prompt line: Entry Cc1cccc(NC(=O)c2cc([N+](=O)[O-])ccc2N2CCN(C)CC2)c1 : call = ?
Response line: f

Prompt line: Entry O=C(CN1CCN(C2CCCCC2)CC1)Nc1ccccc1N1CCCCC1 : call = ?
Response line: f

Prompt line: Entry COc1cccc(CN(C)CC(=O)Nc2ccccc2C(=O)Nc2ccccc2)c1 : call = ?
Response line: f

Prompt line: Entry CC(C)(C)NC(=O)NC(=O)COC(=O)C1c2ccccc2Oc2ccccc21 : call = ?
Response line: f

Prompt line: Entry COc1cccc(CN(C)CC(O)COC(c2ccccc2)c2ccccc2C)c1 (stereo unspecified) : call = ?
Response line: t

* * *

# TARGET_OR_TEST_SYSTEM: Mitogen-activated protein kinase kinase kinase 2 (Homo sapiens)
# METHOD_SUMMARY: modulators of MEK5 binding to wildtype MEKK2, primary screen, biochemical, multiplex bead flow cytometry, Alexa488-MEK5 (AID 1531)
# ASSAY_SETUP: Alexa488-MEK5 binding to MEKK2 WT, at 10 µM, actives lie on both sides
Hit rate of the full screen: of about 290,000 compounds, about 3,300 (1.1%) were called active. Rule as the data show it: active = binding response below about 67% or above about 130%; inconclusive = no clear call, values can overlap the other calls; inactive = in between. This excerpt belongs to a sample that is enriched for actives.
Your reply should match one of these outcome classes. active, inactive

Example entries begin here.
- COMPOUND: "COc1ccc(-c2c(NC(=O)c3ccco3)oc3ccc(Cl)cc3c2=O)cc1"
  CAT: "inactive"
- COMPOUND: "COCC1CCN(C(=O)CCc2nnc(C3(c4ccc(Cl)cc4)CCC3)o2)C1 (stereo not given)"
  CAT: "inactive"
- COMPOUND: "Cc1ccc(N(CC(=O)NC2CCCCC2)C(=O)CCCC(=O)Nc2ccccn2)c(C)c1"
  CAT: "inactive"
- COMPOUND: "CC1(C)Cc2c(sc(NC(=O)C(=O)N3CCOCC3)c2C#N)CO1"
  CAT: "inactive"
- COMPOUND: "O=C(NCc1ccccc1)C1=C[C@@H](c2ccccc2)C[C@@H](OCCCCO)O1"
  CAT: "inactive"
- COMPOUND: "Cc1c(C)c(C)c(S(=O)(=O)N2CCC3(CC2)OCCO3)c(C)c1C"
  CAT: "inactive"
- COMPOUND: "COc1ccc(CN2CC[C@H]3C=CC[C@@H](C(=O)N4CCOCC4)[C@H]3C2=O)cc1OC"
  CAT: "inactive"
- COMPOUND: "CCOC(=O)c1c(-c2ccc(-c3ccccc3)cc2)csc1NC(=O)CCC(=O)O"
  CAT: "inactive"

Prompt line: Entry CCOC(=O)c1c(-c2cccc(C)c2)csc1NC(=O)c1c(-c2ccccc2)noc1C : call = ?
Response line: inactive

Prompt line: Entry CCOC(=O)c1c(-c2ccccc2)csc1NC(=S)NC(=O)c1ccccc1 : call = ?
Response line: active

* * *

# TARGET_OR_TEST_SYSTEM: Mitogen-activated protein kinase kinase kinase 2 (Homo sapiens)
# METHOD_SUMMARY: modulators of MEK5 binding to wildtype MEKK2, primary screen, biochemical, multiplex bead flow cytometry, Alexa488-MEK5 (AID 1531)
# ASSAY_SETUP: Alexa488-MEK5 binding to MEKK2 WT, at 10 µM, actives lie on both sides
The campaign covered roughly 290,000 compounds. About 3,300 (1.1%) were called active. Cut-off read from the data, not from the text of the source: active = binding response below about 67% or above about 130%; inconclusive = no clear call, values can overlap the other calls; inactive = in between. The sample holds actives, similar compounds and a random draw of the others, so the mix is not that of the screen.
Your reply should match one of these outcome classes. YES for active, NO for inactive

- COMPOUND: "CC(Sc1nnc(CNC(=O)c2ccccc2F)n1C)C(=O)Nc1nccs1 (stereo not given)"
  CAT: "NO"
- COMPOUND: "O=C(CCCn1c(=O)[nH]c2cc(Cl)ccc2c1=O)NCCN1CCN(c2ccccc2)CC1"
  CAT: "NO"
- COMPOUND: "O=C(Cc1csc(Nc2nc(=S)[nH]c3ccccc23)n1)NCCCN1CCN(c2cccc(Cl)c2)CC1"
  CAT: "YES"
- COMPOUND: "COc1cccc(CNC(=O)Cc2csc(Nc3nc(=S)[nH]c4ccccc34)n2)c1"
  CAT: "NO"
- COMPOUND: "CC(C)[C@H](NC(=O)N1CCn2c1nc1ccccc12)C(=O)NC1CC1"
  CAT: "NO"

Prompt line: Entry CS(=O)(=O)N1CCN(C(=O)CSc2ccccc2)CC1 : call = ?
Response line: NO

* * *

# TARGET_OR_TEST_SYSTEM: Mitogen-activated protein kinase kinase kinase 2 (Homo sapiens)
# METHOD_SUMMARY: modulators of MEK5 binding to wildtype MEKK2, primary screen, biochemical, multiplex bead flow cytometry, Alexa488-MEK5 (AID 1531)
# ASSAY_SETUP: Alexa488-MEK5 binding to MEKK2 WT, at 10 µM, actives lie on both sides
Among all 290,000 compounds or so, about 3,300 (1.1%) were called active. This excerpt belongs to a sample that is enriched for actives.
OBSERVATION_TYPE: binding response (% of control)

Prompt line: Provide Mitogen-activated protein kinase kinase kinase 2 (Homo sapiens) binding response (% of control) reading for COc1ccc(CCNS(=O)(=O)c2cc3c(cc2C)NC(=O)CO3)cc1OC .
Response line: 98% (inactive)

Prompt line: Provide Mitogen-activated protein kinase kinase kinase 2 (Homo sapiens) binding response (% of control) reading for Clc1ccccc1-c1cc(COc2ccc3ccccc3c2)no1 .
Response line: -1% (active)

Prompt line: Provide Mitogen-activated protein kinase kinase kinase 2 (Homo sapiens) binding response (% of control) reading for c1csc(-c2nc(-c3ccncc3)no2)c1 .
Response line: 94% (inactive)

Prompt line: Provide Mitogen-activated protein kinase kinase kinase 2 (Homo sapiens) binding response (% of control) reading for O=C(/C=C/c1ccccc1Cl)Nc1ccc(S(=O)(=O)Nc2ncccn2)cc1 .
Response line: 92% (inactive)

Prompt line: Provide Mitogen-activated protein kinase kinase kinase 2 (Homo sapiens) binding response (% of control) reading for c1ccc2cc(OCCN3CCCC3)ccc2c1 .
Response line: 102% (inactive)

Prompt line: Provide Mitogen-activated protein kinase kinase kinase 2 (Homo sapiens) binding response (% of control) reading for Nc1ccc(S(=O)(=O)Nc2nccc(/C=C/c3ccc(Br)s3)n2)cc1 .
Response line: 93% (inactive)

Prompt line: Provide Mitogen-activated protein kinase kinase kinase 2 (Homo sapiens) binding response (% of control) reading for O=C(Nc1ccc(Cl)cc1)OCc1cc(-c2ccccc2)on1 .
Response line: 112% (inactive)
